Origin of the recorded values: ChEMBL document CHEMBL1140105

biological target: Beta-2 adrenergic receptor (Mesocricetus auratus, UniProt P04274); experiment: Agonist activity at adrenergic beta2 receptor in Syrian hamster DDT1 MF2 cells assessed as stimulation of cAMP accumulation by radioimmunoassay in presence of 1 uM DPCPX
Sequence (P04274 whole entry): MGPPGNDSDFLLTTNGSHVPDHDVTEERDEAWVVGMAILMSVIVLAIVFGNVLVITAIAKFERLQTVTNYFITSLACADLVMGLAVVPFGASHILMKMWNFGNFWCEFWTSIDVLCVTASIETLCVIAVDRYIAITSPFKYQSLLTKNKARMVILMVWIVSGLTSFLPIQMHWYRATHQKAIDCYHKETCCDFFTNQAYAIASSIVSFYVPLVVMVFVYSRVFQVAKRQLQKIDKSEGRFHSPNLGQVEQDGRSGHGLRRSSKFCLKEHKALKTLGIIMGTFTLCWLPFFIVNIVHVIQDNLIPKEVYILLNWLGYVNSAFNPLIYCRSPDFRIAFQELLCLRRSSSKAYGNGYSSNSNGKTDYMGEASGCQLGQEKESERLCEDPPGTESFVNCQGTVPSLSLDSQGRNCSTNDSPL

compound: Nc1cc(C(O)CNCCCCNc2ncnc3c2ncn3[C@@H]2O[C@H](CO)[C@@H](O)[C@H]2O)ccc1O (stereo partly specified)
EC50 [nM]: 1090
